Experiment: Selectivity index, ratio of CC50 for human mock-infected MT4 cells to EC50 for wild type HIV1 3B harboring reverse transcriptase infected in human MT4 cells
Type: toxicity, cell-based
Details: MT4 cells (mock-infected for CC50, HIV-1 infected for EC50)
measured-attribute: selectivity ratio

1. Nc1ccn([C@@H]2CS[C@H](CO)O2)c(=O)n1 [LAMIVUDINE]    > 39
2. CC(=O)NS(=O)(=O)c1ccc(CN2CCC(Nc3nc(Oc4c(C)cc(C#N)cc4C)c4sccc4n3)CC2)cc1    > 576

Consider the record given below.
# selectivity ratio lookup, item Cc1cc(C#N)cc(C)c1Oc1nc(NC2CCN(Cc3ccc(S(N)(=O)=O)cc3)CC2)nc2ccsc12
> 159000
